// data source = ChEMBL document CHEMBL1147813

# EC50 annotations
test system: Human immunodeficiency virus 1; experiment: Antiviral activity against HIV1 in MT4 cell line; assay type: functional, organism-based; conditions: Human immunodeficiency virus 1, MT4; read-out: Log EC50 (converted)
Measurement kind: EC50 (nM)

* CC(=O)NNC(=O)c1[nH]c2ccc(Cl)cc2c1S(=O)(=O)c1cc(C)cc(C)c1 | 5
* Cc1cc(C)cc(S(=O)(=O)c2c(C(=O)NNC(C)C)[nH]c3ccc(Cl)cc23)c1 | 0.7
* CNNC(=O)c1[nH]c2ccc(Cl)cc2c1S(=O)(=O)c1cc(C)cc(C)c1 | 20
* Cc1cc(C)cc(S(=O)(=O)c2c(C(=O)NN3CCOC3=O)[nH]c3ccc(Cl)cc23)c1 | 0.899
* Cc1cc(C)cc(S(=O)(=O)c2c(C(=O)NNC3CCCCC3)[nH]c3ccc(Cl)cc23)c1 | 50

* * *

test system: Human immunodeficiency virus 1; assay: Antiviral activity against HIV1; assay type: functional, organism-based
pEC50: −log10 of the molar value.
Short version: pEC50 at least 7 is T, less is F.

• NNC(=O)c1[nH]c2ccc(Cl)cc2c1Sc1cc(Cl)ccc1N = F
• O=S(=O)(c1ccccc1)n1ccc2cc(Cl)ccc21 = F
• CCOC(=O)c1cc2ccccc2n1S(=O)(=O)c1cc(Cl)ccc1[N+](=O)[O-] = F
• CC(C)OC(=O)c1cn(S(=O)(=O)c2ccccc2)c2ccc(Cl)cc12 = F
• Cc1ccc(S(=O)(=O)c2c(C(=O)NN)[nH]c3ccc(Cl)cc23)cc1 = T
• Cc1ccccc1Sc1c(C(=O)NCCO)[nH]c2ccc(Cl)cc12 = T
• NNC(=O)c1[nH]c2ccc(Cl)cc2c1S(=O)(=O)c1ccccc1 = T
• Cc1cc(C)cc(S(=O)(=O)c2c(C(=O)NCCO)[nH]c3ccc(Cl)cc23)c1 = T
• O=C(NCCO)c1[nH]c2ccc(Cl)cc2c1S(=O)(=O)c1ccccc1 = T
• CCOC(=O)c1[nH]c2ccccc2c1Sc1ccccc1 = F
• Cc1cccc(S(=O)(=O)c2c(C(N)=O)[nH]c3ccc(Cl)cc23)c1 = T
• CCOC(=O)c1[nH]c2ccccc2c1Sc1cc(Cl)ccc1N = F
• Cc1ccc(S(=O)(=O)c2c(C(N)=O)[nH]c3ccc(Cl)cc23)cc1 = T
• CCOC(=O)c1cc2cc(Cl)ccc2n1S(=O)(=O)c1cc(Cl)ccc1[N+](=O)[O-] = F
• NNC(=O)c1[nH]c2ccc(Cl)cc2c1Sc1ccc(F)cc1 = F
• O=C(NNCCO)c1[nH]c2ccc(Cl)cc2c1S(=O)(=O)c1ccccc1 = T
• O=[N+]([O-])c1cc(Cl)ccc1-n1ccc2ccccc21 = F
• Cc1ccc(Sc2c(C(=O)NNCCO)[nH]c3ccc(Cl)cc23)cc1 = F
• NNC(=O)c1[nH]c2ccc(Cl)cc2c1S(=O)(=O)c1cc(Cl)ccc1N = F
• NC(=O)c1[nH]c2ccc(Cl)cc2c1S(=O)(=O)c1ccccc1 = T
• CC(C)OC(=O)c1cn(S(=O)(=O)c2ccccc2)c2ccccc12 = F
• Cc1cc(C)cc(Sc2c(C(N)=O)[nH]c3ccc(Cl)cc23)c1 = T
• O=[N+]([O-])c1ccc(Cl)c(-n2ccc3ccccc32)c1 = F
• Cc1cc(C)cc(S(=O)(=O)c2c(C(N)=O)[nH]c3ccc(Cl)cc23)c1 = T
• Cc1cc(C)cc(Sc2c(C(=O)NNCCO)[nH]c3ccc(Cl)cc23)c1 = T
• Cc1cccc(S(=O)(=O)c2c(C(=O)NNCCO)[nH]c3ccc(Cl)cc23)c1 = T
• Cc1ccc(Sc2c(C(N)=O)[nH]c3ccc(Cl)cc23)cc1 = F
• Cc1ccc(Sc2c(C(=O)NNCCO)[nH]c3ccc(Cl)cc23)c(C)c1 = F
• NC(=O)c1[nH]c2ccc(Cl)cc2c1S(=O)(=O)c1cc(Cl)ccc1N = T
• Cc1ccccc1S(=O)(=O)c1c(C(N)=O)[nH]c2ccc(Cl)cc12 = T
• O=C(NCCO)c1[nH]c2ccc(Cl)cc2c1Sc1ccccc1 = T
• Cc1cc(C)cc(S(=O)(=O)c2c(C(=O)NNCCO)[nH]c3ccc(Cl)cc23)c1 = T

* * *

test system: MT4; experiment: Cytotoxicity against MT4 cell line by MTT assay; format: functional; conditions: Homo sapiens, read-out: TC50 (the source's name)
Measurement kind: CC50

* Cc1cc(C)cc(S(=O)(=O)c2c(C(=O)NN3CCOC3=O)[nH]c3ccc(Cl)cc23)c1 | 100 µM
* CNNC(=O)c1[nH]c2ccc(Cl)cc2c1S(=O)(=O)c1cc(C)cc(C)c1 | > 100 µM
* CCOC(=O)NNC(=O)c1[nH]c2ccc(Cl)cc2c1S(=O)(=O)c1cc(C)cc(C)c1 | 100 µM

* * *

Recorded measurements of pEC50, one per entry
system: Human immunodeficiency virus 1; test: Antiviral activity against HIV1; assay type: functional, organism-based
pEC50: −log10 of the molar value.
Measurement kind: pEC50

- CC(C)c1ccc(S(=O)(=O)c2c(C(N)=O)[nH]c3ccc(Cl)cc23)cc1: 7.10
- Cc1cccc(Sc2c(C(=O)NCCO)[nH]c3ccc(Cl)cc23)c1: 7.10
- Cc1cc(C)cc(S(=O)(=O)c2c(C(=O)NN)[nH]c3ccc(Cl)cc23)c1: 6.89
- Cc1cccc(Sc2c(C(=O)NCCO)[nH]c3ccc(Cl)cc23)c1C: 7.00
- Cc1ccc(Sc2c(C(=O)NCCO)[nH]c3ccc(Cl)cc23)cc1: 6.92
